All values here come from PubChem BioAssay (NCI).

Consider the following compounds and their measured TGI readings.
- System: UACC-257 melanoma
- Procedure Details: NCI tumour cell line growth inhibition, 48 h
Where a SMILES comes first, the peptide text is derived from it. The star is where a group is joined. Cbz = O=C(OCc1ccccc1)*

Compound	Observed Measurement
CC(NC(=O)C(NC(=O)OCc1ccccc1)C(C)C)C(=O)NCC(=O)O (stereo not drawn) (Cbz-Val-Ala-Gly-OH; configuration not given here)	> 100 µM
COC(=O)c1cc2c(s1)-c1nccc3c1c(nc1ccccc13)C2=O	> 100 µM

Now for another entry.
QUERY: Which measured TGI value corresponds to `Cn1c(=O)c(Oc2ccc(F)cc2)cc2cnc(NC3CCOCC3)nc21` ?
RESULT: > 25 µM
